target: Phosphodiesterase 3 (Homo sapiens, UniProt Q14432+Q13370); assay: Inhibitory potency against guinea pig ventricular phosphodiesterase 3; type: protein assay, Cavia porcellus; conditions: target entry is the homologue from another species

# compound, IC50
rows = [
    ("O=c1c2cn(CC3CCCCC3)c3ccccc3c-2nn1C1CCCC1", "> 20 µM"),
    ("CCCCn1nc2c3ccccc3n(Cc3cccc([N+](=O)[O-])c3)cc-2c1=O", "> 20 µM"),
    ("O=c1c2cn(Cc3ccccc3)c3ccccc3c-2nn1C1CC2CCC1C2 (stereo not given)", "> 20 µM"),
    ("CCCCn1nc2c3ccccc3n(Cc3cccc(N)c3)cc-2c1=O", "> 200 µM"),
    ("CCn1c(=O)c2ccccc2n(-c2cccc([N+](=O)[O-])c2)c1=O", "> 200 µM"),
    ("O=c1c2cn(Cc3ccccc3)c3ccccc3c-2nn1Cc1ccccc1", "25 µM"),
    ("CCCCn1nc2c3ccccc3n(Cc3cccs3)cc-2c1=O", "> 20 µM"),
    ("CCCCn1nc2c3ccccc3n(CCc3ccccc3)cc-2c1=O", "> 200 µM"),
    ("CC(C)(C)n1nc2c3ccccc3n(CC3CCCCC3)cc-2c1=O", "> 20 µM"),
    ("CC(C)(C)n1nc2c3ccccc3n(Cc3cccs3)cc-2c1=O", "> 20 µM"),
    ("O=c1c2cn(Cc3cccs3)c3ccccc3c-2nn1C1CCCC1", "> 20 µM"),
    ("O=c1c2cn(Cc3ccccc3)c3ccccc3c-2nn1CC1CCC1", "> 200 µM"),
    ("CCCCn1nc2c3ccccc3n(Cc3cccc(Cl)c3)cc-2c1=O", "> 20 µM"),
    ("CC(C)(C)n1nc2c3ccccc3n(Cc3ccccc3)cc-2c1=O", "> 100 µM"),
    ("O=c1c2cn(Cc3ccccc3)c3ccccc3c-2nn1CCc1ccccc1", "> 100 µM"),
]

----------
target: Phosphodiesterase 4 (Homo sapiens, UniProt P27815+Q08499+Q07343+Q08493); assay: Inhibitory potency against guinea pig ventricular phosphodiesterase 4; format: protein assay, Cavia porcellus; conditions: target entry is the homologue from another species
# log10 IC50 annotations
metric: log10 IC50 (log10 of the value in µM)

# molecule, endpoint-result
measured = [
    ("O=c1c2cn(Cc3ccccc3)c3ccccc3c-2nn1C1CC2CCC1C2 (stereo not drawn)", 0.15),
    ("CCCCn1nc2c3ccccc3n(Cc3cccc(Cl)c3)cc-2c1=O", 0.36),
    ("O=c1c2cn(Cc3ccccc3)c3ccccc3c-2nn1CC1CCCCC1", 1.38),
    ("O=c1c2cn(Cc3ccccc3)c3ccccc3c-2nn1Cc1ccccc1", 0.85),
    ("O=c1[nH]nc2c3ccccc3n(Cc3ccccc3)cc1-2", 1.57),
    ("CC(C)(C)n1nc2c3ccccc3n(Cc3cccs3)cc-2c1=O", -0.10),
    ("O=c1c2cn(Cc3cccs3)c3ccccc3c-2nn1C1CCCC1", -0.40),
    ("CC(C)(C)n1nc2c3ccccc3n(Cc3ccccc3)cc-2c1=O", 0.32),
]
